This collection of values is drawn from patent US20120264735A1.

Biological target: c-Met kinase (recombinant c-Met) (Homo sapiens, UniProt P08581)
Construct: 0.27 nM recombinant c-Met
Sequence (P08581 25-1390): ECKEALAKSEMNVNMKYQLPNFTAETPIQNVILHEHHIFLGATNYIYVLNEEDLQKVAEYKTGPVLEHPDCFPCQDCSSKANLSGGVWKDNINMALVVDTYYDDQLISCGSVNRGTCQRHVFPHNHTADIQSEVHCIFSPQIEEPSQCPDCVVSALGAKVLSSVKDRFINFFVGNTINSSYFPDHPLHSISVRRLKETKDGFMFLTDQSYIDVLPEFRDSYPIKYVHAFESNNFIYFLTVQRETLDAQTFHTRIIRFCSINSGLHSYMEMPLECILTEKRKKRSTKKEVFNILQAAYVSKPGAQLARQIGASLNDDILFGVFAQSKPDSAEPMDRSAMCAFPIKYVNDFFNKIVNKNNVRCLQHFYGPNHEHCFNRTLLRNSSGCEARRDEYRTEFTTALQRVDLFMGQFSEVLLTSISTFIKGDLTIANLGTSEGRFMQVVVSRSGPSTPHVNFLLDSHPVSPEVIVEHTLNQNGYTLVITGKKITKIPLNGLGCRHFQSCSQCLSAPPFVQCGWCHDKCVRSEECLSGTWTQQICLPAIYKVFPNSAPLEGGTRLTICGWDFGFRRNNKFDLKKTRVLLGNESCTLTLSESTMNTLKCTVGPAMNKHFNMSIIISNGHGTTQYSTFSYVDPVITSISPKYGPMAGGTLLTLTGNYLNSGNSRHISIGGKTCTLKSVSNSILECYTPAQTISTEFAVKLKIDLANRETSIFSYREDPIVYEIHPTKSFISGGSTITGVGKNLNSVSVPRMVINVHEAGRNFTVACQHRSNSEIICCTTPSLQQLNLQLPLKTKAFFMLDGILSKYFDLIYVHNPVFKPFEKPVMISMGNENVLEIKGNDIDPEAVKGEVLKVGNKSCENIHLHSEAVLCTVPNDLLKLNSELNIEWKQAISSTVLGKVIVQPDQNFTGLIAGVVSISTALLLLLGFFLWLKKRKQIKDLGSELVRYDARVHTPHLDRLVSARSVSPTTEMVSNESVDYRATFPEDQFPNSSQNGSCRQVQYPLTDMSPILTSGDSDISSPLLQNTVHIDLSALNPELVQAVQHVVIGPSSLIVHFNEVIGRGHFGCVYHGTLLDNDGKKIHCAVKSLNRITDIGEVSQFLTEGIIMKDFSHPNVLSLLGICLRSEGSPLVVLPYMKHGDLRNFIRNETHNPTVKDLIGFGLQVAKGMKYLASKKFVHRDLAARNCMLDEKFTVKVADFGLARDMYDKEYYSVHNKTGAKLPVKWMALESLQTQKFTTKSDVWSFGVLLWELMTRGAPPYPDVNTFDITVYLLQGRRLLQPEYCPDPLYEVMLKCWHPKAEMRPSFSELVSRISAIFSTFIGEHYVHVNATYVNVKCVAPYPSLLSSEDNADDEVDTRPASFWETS
Assay: In vitro kinase assay I (homogeneous time-resolved fluorescence tyrosine kinase assay)
pIC50: −log10 of the molar value.
Measured pIC50 of individual entries

# annotated cases, reported pIC50 shown
Cn1cnc(-c2cccc(Cc3nn(-c4ccccc4)ccc3=O)c2)n1 : 6.00 to 7.00
CCn1cc(-n2ccc(=O)c(Cc3cccc(-c4ncc(OC5CN(C(=O)OC(C)(C)C)C5)cn4)c3)n2)cn1 : > 7.00
CCOC(=O)Nc1cccc(C(F)c2nn(-c3cnn(C)c3)ccc2=O)c1 (racemic) : > 7.00
CCCn1cnc(-c2cccc(C(C)c3nn(-c4cnn(CC)c4)ccc3=O)c2)n1 (single isomer, unassigned) [Example 688] : 6.00 to 7.00
CC(C)COC(=O)Nc1cccc(Cc2nn(-c3cnn(CCCC(=O)N(C)C)c3)ccc2=O)c1 : > 7.00
Cc1nc(-c2cccc(C(C)c3nn(-c4cnn(C)c4)ccc3=O)c2)ncc1F (single isomer, unassigned) : 6.00 to 7.00

Next compound, please.
// field: pIC50; key: Cn1cc(-n2ccc(=O)c(Cc3cccc(NC(=O)OCc4ccccc4)c3)n2)cn1 ; value = > 7.00
